Collected pIC50 values appear next to each entry.
Target: T1, human HER-2 extracellular domain (HER-2 ECD) (human, UniProt P04626 23-646)
T1 construct: range 23-646; also called erbB2; HER2 protein
Test: competitive Fab-phage ELISA
pIC50: −log10 of the molar value.

>  <BINDER>
G55 (Fab, V domains shown) VH: EVQLVESGGGLVQPGGSLRLSCAASGFSIYSSYIHWVRQAPGKGLEWVASIYPYSGYTSYADSVKGRFTISADTSKNTAYLQMNSLRAEDTAVYYCARYYSYAFDYWGQGTLVTVSS VL: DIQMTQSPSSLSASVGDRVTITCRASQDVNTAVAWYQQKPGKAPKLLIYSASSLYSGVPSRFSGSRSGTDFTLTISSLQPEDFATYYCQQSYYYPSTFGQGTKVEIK

>  <pIC50>
8.19

$$$$
>  <BINDER>
G41 (Fab, V domains shown) VH: EVQLVESGGGLVQPGGSLRLSCAASGFWIWSSSIHWVRQAPGKGLEWVAWISPSSGSTWYADSVKGRFTISADTSKNTAYLQMNSLRAEDTAVYYCARSSWSSWSSALDYWGQGTLVTVSS VL: DIQMTQSPSSLSASVGDRVTITCRASQDVNTAVAWYQQKPGKAPKLLIYSASSLYSGVPSRFSGSRSGTDFTLTISSLQPEDFATYYCQQWSSWPSTFGQGTKVEIK

>  <pIC50>
7.29

$$$$
>  <BINDER>
G33 (Fab, V domains shown) VH: EVQLVESGGGLVQPGGSLRLSCAASGFSIWSSWIHWVRQAPGKGLEWVASISPSSGWTSYADSVKGRFTISADTSKNTAYLQMNSLRAEDTAVYYCARWWSSALDYWGQGTLVTVSS VL: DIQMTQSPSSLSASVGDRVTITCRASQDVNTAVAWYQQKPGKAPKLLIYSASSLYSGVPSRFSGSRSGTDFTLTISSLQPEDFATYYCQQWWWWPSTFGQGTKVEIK

>  <pIC50>
8.77

$$$$
